Target: α4β2 NNRs (Homo sapiens, UniProt P17787+P43681)
Sequence (P43681 29-627 limits assumed): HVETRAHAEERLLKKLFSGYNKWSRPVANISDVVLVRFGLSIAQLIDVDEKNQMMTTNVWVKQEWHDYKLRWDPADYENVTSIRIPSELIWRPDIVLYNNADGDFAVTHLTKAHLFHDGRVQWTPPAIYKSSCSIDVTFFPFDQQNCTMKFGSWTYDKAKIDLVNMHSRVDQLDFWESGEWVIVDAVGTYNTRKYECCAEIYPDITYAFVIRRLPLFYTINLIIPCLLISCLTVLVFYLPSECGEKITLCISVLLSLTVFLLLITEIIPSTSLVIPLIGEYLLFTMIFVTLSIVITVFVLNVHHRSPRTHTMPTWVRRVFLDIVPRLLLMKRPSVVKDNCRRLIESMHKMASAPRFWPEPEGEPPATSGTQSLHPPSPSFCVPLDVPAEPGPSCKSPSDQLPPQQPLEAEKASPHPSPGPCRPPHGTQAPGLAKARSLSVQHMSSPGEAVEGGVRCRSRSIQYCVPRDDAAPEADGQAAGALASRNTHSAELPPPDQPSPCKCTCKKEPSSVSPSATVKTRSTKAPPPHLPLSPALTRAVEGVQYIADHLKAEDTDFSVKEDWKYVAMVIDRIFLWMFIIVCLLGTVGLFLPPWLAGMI
Sequence (P17787 26-502): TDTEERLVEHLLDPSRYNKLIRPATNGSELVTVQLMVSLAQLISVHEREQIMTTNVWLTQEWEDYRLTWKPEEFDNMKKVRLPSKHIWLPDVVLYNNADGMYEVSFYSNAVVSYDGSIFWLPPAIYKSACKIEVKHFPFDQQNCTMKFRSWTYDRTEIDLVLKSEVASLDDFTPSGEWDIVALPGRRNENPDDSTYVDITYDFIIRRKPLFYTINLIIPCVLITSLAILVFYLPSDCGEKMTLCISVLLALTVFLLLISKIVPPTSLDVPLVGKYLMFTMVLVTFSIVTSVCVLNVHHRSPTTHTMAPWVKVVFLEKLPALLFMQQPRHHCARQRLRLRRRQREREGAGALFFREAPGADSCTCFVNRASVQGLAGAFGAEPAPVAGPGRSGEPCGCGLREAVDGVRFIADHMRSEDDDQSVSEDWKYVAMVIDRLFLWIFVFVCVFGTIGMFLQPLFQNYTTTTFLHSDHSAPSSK
Experiment: Binding to α4β2 NNRs
endpointName: Ki

Query :: Request: Ki, test system α4β2 NNRs (Homo sapiens, UniProt P17787+P43681), entry O=C(N[C@@H]1C2CCN(CC2)[C@H]1Cc1cccnc1)c1cc2ccccc2o1 (single isomer, unassigned) [Compound A]
Result :: > 2 µM

====

Assay: Water solubility (salt screening)
Assay type: physicochemical

compound	Water solubility
O=C(N[C@@H]1C2CCN(CC2)[C@H]1Cc1cccnc1)c1cc2ccccc2o1.O=C(O)/C=C\C(=O)O [maleic acid salt]	good water solubility
Cl.O=C(N[C@@H]1C2CCN(CC2)[C@H]1Cc1cccnc1)c1cc2ccccc2o1 [hydrochloric acid salt]	good water solubility
Cc1ccc(S(=O)(=O)O)cc1.O=C(N[C@@H]1C2CCN(CC2)[C@H]1Cc1cccnc1)c1cc2ccccc2o1 [p-toluenesulfonic acid salt]	good water solubility
O=C(N[C@@H]1C2CCN(CC2)[C@H]1Cc1cccnc1)c1cc2ccccc2o1.O=P(O)(O)O [phosphoric acid salt]	good water solubility
